Data provenance: patent US12479858B2

assay: Plasma and tumor compound concentrations in CT26 tumor-bearing mice (LC-MS/MS); assay type: in vivo, BALB/c mice; details: BALB/c, mouse, plasma, intravenous; 0.375 mg/kg single i.v., 8 h (Table 4); read-out: Plasma Conc.
Counter-ions that a name gives are not always drawn.
What concentration at 8 h was measured for each of the following?

# lookup: concentration at 8 h of CCn1nc(C)cc1C(=O)Nc1nc2cc(C(N)=O)cc3c2n1C/C=C/Cn1c(NC(=O)c2cc(C)nn2CC)nc2cc(C(=O)N[C@H]4CC[C@H](c5nnn[nH]5)CC4)cc(c21)OCCCO3 [Compound 6, sodium salt]
130 nM

Follow-up item: CCn1nc(C)cc1C(=O)Nc1nc2cc(C(N)=O)cc3c2n1C/C=C/Cn1c(NC(=O)c2cc(C)nn2CC)nc2cc(C(=O)NCCCn4cc(C(=O)O)cn4)cc(c21)OCCCO3 [Compound 8, sodium salt]
20 nM

Follow-up item: CCn1nc(C)cc1C(=O)Nc1nc2cc(C(N)=O)cc3c2n1C/C=C/Cn1c(NC(=O)c2cc(C)nn2CC)nc2cc(C(=O)N[C@H]4CC[C@H](C(=O)O)CC4)cc(c21)OC[C@@H](N1C2CCC1COC2)CO3 [Compound 14, sodium salt]
90 nM

Follow-up item: CCn1nc(C)cc1C(=O)Nc1nc2cc(C(N)=O)cc3c2n1C/C=C/Cn1c(NC(=O)c2cc(C)nn2CC)nc2cc(C(=O)N[C@H]4CC[C@H](c5nnn[nH]5)CC4)cc(c21)OC[C@@H](N1C2CCC1COC2)CO3 [Compound 12, sodium salt]
180 nM
